Tested on: OVCAR-5 ovarian
Assay: NCI-60 one-dose screen, 48 h (100 = growth as untreated, 0 = no growth, -100 = all killed)
Conditions: 10 µM unless noted
Compounds without any hit were thinned out: in the full panel of roughly 83,000, 20% have a hit. The source made the active and inactive calls. How the source made its calls: active means growth percent below 10; inactive means the rest.
value type: growth

compound	target under test	recorded result
CCn1cc(-c2[nH]c(=S)ncc2-c2ccc(Cl)cc2)c(-c2ccc(Br)cc2)n1	OVCAR-5 ovarian	90.5% (inactive)
O=c1[nH]cnc2c1ccn2C1OC(CO)C(O)C1O (stereo not given)	OVCAR-5 ovarian	76.6% (inactive)
CCC(Br)(CC)C(=O)c1ccc(OCC(=O)O)c(Cl)c1Cl	OVCAR-5 ovarian	106% (inactive)
CC(C)CCSc1nc(N)nc2nc[nH]c12	OVCAR-5 ovarian	107% (inactive)
Cn1cc(-c2nnc(-c3cn(C)c4ncc(Br)cc34)s2)c2cc(Br)ccc21	OVCAR-5 ovarian	88.6% (inactive)
CC1(C)CC(=O)c2c(ccc(C(=O)C[C@@H](N)CO)c2N)O1	OVCAR-5 ovarian	49.8% (inactive)
CC(=O)O.CC(=O)O.O.[Fe]	OVCAR-5 ovarian	105% (inactive)
O=C1NC(=O)C(Cc2ccccc2)(Cc2ccccc2)N1	OVCAR-5 ovarian	110% (inactive)
C=C(C)[C@@H]1CC[C@]2(COCCC#N)CC[C@]3(C)[C@H](CC[C@@H]4[C@@](C)(CCCNCCC#N)[C@H](C(=C)C)CC[C@]43C)[C@@H]12	OVCAR-5 ovarian	36.7% [100 µM] (inactive)
COc1cc2c(c(OC)c1OC)-c1cc(I)c(O)cc1[C@@H](NC(C)=O)CC2	OVCAR-5 ovarian	49.2% (inactive)

###

Test system: NCI-H322M lung
Test: NCI-60 one-dose screen, 48 h
Settings: 10 µM unless noted
This is part of a sample that, as a whole, favours compounds with a hit. Of some 83,000 tested, about 20% had one in any assay. Active and inactive are the calls of the source. The calls were made as follows: active = growth percent below 10; inactive = the rest.
Labels: active, inactive

molecule	discrete label
O=C(NCCO)c1cccnc1	inactive
Cn1cc(-c2nnc(-c3cn(C)c4ncccc34)s2)c2ccccc21	inactive
COc1ncc(-c2ccc3nccc(C#CCCCCC(=O)O)c3c2)cc1NS(=O)(=O)c1ccc(F)cc1F	inactive
CC1=C/C(=C(\c2cc(C)c(O)c(C(=O)O)c2)c2c(Cl)cccc2Cl)C=C(C(=O)O)C1=O	inactive
CC1(C(=O)O)CCC(N)(C(=O)O)C1(C)C (configuration not stated)	inactive
CC(C)[C@H]1CCC2=C3CC[C@]45OC(=O)[C@@]6(CCC(C)(C)C[C@H]64)CC[C@@]5(C)[C@]3(C)CC[C@@]21C	inactive
CCOc1cc(/C=N\NC(=O)N/N=C/c2ccc(O)c(OCC)c2)ccc1O	inactive
C=C(C)[C@@H]1CC[C@]2(C(=O)NCCNCCNC(=O)OC(C)(C)C)CC[C@]3(C)[C@H](CC[C@@H]4[C@@]5(C)CCC(=O)C(C)(C)[C@@H]5CC[C@]43C)[C@@H]12	inactive
O=C(O)c1cn(C2CC2)c2cc(N3CCN(Cc4c(O)ccc5ccccc45)CC3)c(F)cc2c1=O	inactive
COc1ccc2nc3cc(Cl)ccc3c(Nc3ccc(O)c(CN4CCCC4)c3)c2c1	active
O=C1C(Cl)=C(Nc2ccc3cn[nH]c3c2)C(=O)c2ccccc21	active
COc1cccc(-c2[nH]c(=S)ncc2C(=O)c2ccccc2)c1	inactive
CCCCCCCCCCCCCC[n+]1cccc(C(N)=O)c1	inactive
CC1(C)CC[C@]2(C(=O)O)CC[C@]3(C)[C@H](CC[C@@H]4[C@@]5(C)CCC(=O)C(C)(C)[C@@H]5CC[C@]43C)[C@H]2[C@H]1OC(=O)C(F)(F)F	active
CC[C@@H]1NC(=O)[C@@H]2CCCCN2C(=O)[C@@H]2CCCN2C(=O)[C@@H](NC(=O)[C@H](Cc2cc(F)cc(F)c2)NC(=O)Nc2ccc(C3CC3)cc2F)[C@H](C)OC(=O)[C@@H]2C[C@@H](C)CN2C1=O	inactive
CC(C)(C)c1cc(C(=O)Nc2cc3ccccc3cc2C(=O)NCCN)cc(C(C)(C)C)c1	active
COc1ccc2[nH]c(C(=O)N3CCN(C(=O)OCc4ccc5c(Br)cc(Br)c(O)c5n4)CC3)cc2c1	active
